experiment: Critical micelle concentration (CMC) by ANS fluorescence dye binding; type: physicochemical; conditions: in water at 25° C., ANS fluorescence assay
readoutType: CMC (%)
Give bare numbers, in %.

Before answering, review these 3 worked examples.
CCC[C@@H](C)[C@H]1CC[C@H]2[C@@H]3[C@H](O[C@@H]4OC(CO)[C@@H](O[C@H]5OC(CO)[C@@H](O)[C@H](O)C5O)[C@H](O)C4O)C[C@@H]4CCCC[C@]4(C)[C@H]3C[C@H](O[C@@H]3OC(CO)[C@@H](O[C@H]4OC(CO)[C@@H](O)[C@H](O)C4O)[C@H](O)C3O)[C@]12C (stereo partly shown) | 0.01
CCC[C@@H](C)[C@H]1CC[C@H]2[C@@H]3[C@H](OCCO[C@@H]4OC(CO)[C@@H](O[C@H]5OC(CO)[C@@H](O)[C@H](O)C5O)[C@H](O)C4O)C[C@@H]4C[C@H](O)CC[C@]4(C)[C@H]3C[C@H](OCCO[C@@H]3OC(CO)[C@@H](O[C@H]4OC(CO)[C@@H](O)[C@H](O)C4O)[C@H](O)C3O)[C@]12C (stereo partly shown) | 0.02
CCC[C@@H](C)[C@H]1CC[C@H]2[C@@H]3[C@H](OCCO[C@@H]4OC(CO)[C@@H](O)[C@H](O)C4O)C[C@@H]4C[C@H](O)CC[C@]4(C)[C@H]3C[C@H](OCCO[C@@H]3OC(CO)[C@@H](O)[C@H](O)C3O)[C@]12C (stereo partly shown) | 0.013

API: the following record is the query input.
Request the reported CMC associated with CCC[C@@H](C)[C@H]1CC[C@H]2[C@@H]3[C@H](OCCO[C@@H]4OC(CO)[C@@H](O[C@H]5OC(CO)[C@@H](O)[C@H](O)C5O)[C@H](O)C4O)C[C@@H]4CCCC[C@]4(C)[C@H]3C[C@H](OCCO[C@@H]3OC(CO)[C@@H](O[C@H]4OC(CO)[C@@H](O)[C@H](O)C4O)[C@H](O)C3O)[C@]12C (stereo partly shown) 0.01
